This collection of values is drawn from ChEMBL document CHEMBL6178010.

system: XPO1; assay: Selectivity ratio of EC50 for cytotoxicity against human Jurkat cells assessed as suppression of cell viability to EC50 for inhibition of XPO1 in PMA/ionomycin-activated human Jurkat cells expressing IL-2 promoter reporter gene assessed as suppression of IL-2 transcriptional activity; type: toxicity, cell-based; conditions: read-out: Ratio EC50
I'd appreciate it if you marked entries 1 (yes) when selectivity ratio is lower than 20 and 0 (no) when it is not.

// known answers, use as guide
Compound	Classification
CC1=CC(=O)N(Nc2ccc(C(F)(F)F)c(N3CC4CC4C3)n2)C1=O (stereo not drawn)	0 (no)
CC1=CC(=O)N(Nc2ccc(C(F)(F)F)c(N(C)C)n2)C1=O	0 (no)
CC1=CC(=O)N(Nc2ccc(C(F)(F)F)c(N3CCCC3)n2)C1=O	0 (no)
CC1=C(C)C(=O)N(Nc2nc(C(F)(F)F)nn3cccc23)C1=O	1 (yes)
CC1=CC(=O)N(Nc2cc(N3CC(F)(F)C3)c(C(F)(F)F)cn2)C1=O	1 (yes)

Query: Please state whether selectivity ratio is below 20 for CC1=CC(=O)N(N(C)c2nc(N3CCCCC3)nn3cccc23)C1=O
Reply: 1 (yes)

Query: Now the same for CC1=CC(=O)N(Nc2nc(C3CC3)nn3cccc23)C1=O
Reply: 1 (yes)
